# TEST SUMMARY: refractive index (Na D-line) (dimensionless)
# ASSAY SETUP: 298 K; 101.33 kPa; Liquid; Standard Abbe refractometry
Numbers after ± are expanded uncertainties.
refractive index values by entry

SMILES REPR | refractive index
Cc1ccccc1C | 1.5026 ± 0.0007
CCO | 1.3593 ± 0.0007
CCOC(C)(C)C | 1.373 ± 0.0007
CSSC | 1.5226 ± 0.0007
